assay-remarks: TInhibition of glyceraldehyde-3-phosphate dehydrogenase in Leishmania mexicana
observed-property: IC50 (µM)

Below, 5 molecules whose answers are already recorded.
Problem: Can you look up the measured IC50 of Cc1nc(N)c2[nH]cnc2n1 for me?
Solution: 6000

Problem: Same question, Nc1ncnc2c1nc(-c1cccs1)n2[C@@H]1O[C@H](CO)[C@@H](O)[C@H]1O this time
Solution: 500

Problem: Same question, Nc1ncnc2c1ncn2[C@@H]1O[C@H](CO)[C@@H](O)[C@H]1NC(=O)c1cccc(Cl)c1 this time
Solution: 200

Problem: Same question, NCCn1c(-c2cccs2)nc2c(N)ncnc21 this time
Solution: 1600

Problem: Same question, CCOc1cccc(C(=O)N[C@@H]2[C@H](O)[C@@H](CO)O[C@H]2n2cnc3c(N)ncnc32)c1 this time
Solution: 400

[I] Nc1ncnc2c1ncn2[C@@H]1CCC[C@H]1NC(=O)c1cccc(Br)c1
[II] Nc1ncnc2c1ncn2C1O[C@H](CNC(=O)C(c2ccccc2)c2ccccc2)[C@@H](O)[C@H]1O (some centres undefined)
Problem: // max by IC50 over [ I , II ] Answer by stating the label of the chosen item.
Solution: I
(I: 700 µM, II: 250 µM)

----------
tested-system: Glyceraldehyde-3-phosphate dehydrogenase (Homo sapiens, UniProt P04406)
Sequence (P04406 whole entry): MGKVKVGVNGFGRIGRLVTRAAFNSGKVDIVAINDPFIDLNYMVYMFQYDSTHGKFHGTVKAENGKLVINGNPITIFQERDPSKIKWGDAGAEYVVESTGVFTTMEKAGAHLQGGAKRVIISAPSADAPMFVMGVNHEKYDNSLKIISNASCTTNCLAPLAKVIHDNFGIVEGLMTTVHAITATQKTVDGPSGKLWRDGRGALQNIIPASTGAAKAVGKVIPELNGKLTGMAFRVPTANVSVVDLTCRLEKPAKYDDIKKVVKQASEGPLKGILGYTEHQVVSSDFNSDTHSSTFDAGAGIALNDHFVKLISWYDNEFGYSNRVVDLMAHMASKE
assay-remarks: Inhibition of Glyceraldehyde-3-phosphate dehydrogenase in human erythrocytes.
observed-property: IC50 (mM)

Below, 4 compounds whose answers are already recorded.
Problem: Can you look up the measured IC50 of NCCn1c(-c2cccs2)nc2c(N)ncnc21 for me?
Solution: 1.8

Problem: Same question, Nc1ncnc2c1ncn2[C@@H]1CCC[C@H]1NC(=O)c1cccc(Br)c1 this time
Solution: 1.5

Problem: Same question, Nc1ncnc2c1nc(Sc1ncccn1)n2C1O[C@H](CO)[C@@H](O)[C@H]1O (some centres undefined) this time
Solution: 8

Problem: Same question, Nc1ncnc2c1ncn2[C@@H]1O[C@H](CO)[C@@H](O)[C@H]1NC(=O)c1ccc(-c2ccccc2)cc1 this time
Solution: 0.4

[A] Nc1ncnc2c1nc(-c1cccs1)n2CCNCc1ccccc1
[B] Nc1ncnc2c1nc(-c1cccs1)n2[C@@H]1O[C@H](CO)[C@@H](O)[C@H]1O
Problem: // max by IC50 over [ A , B ] Answer by stating the label of the chosen item.
Solution: B

----------
assay-remarks: Inhibition of glyceraldehyde-3-phosphate dehydrogenase in Trypanosoma brucei
pIC50: −log10 of the molar value.
observed-property: pIC50

Problem: Can you look up the measured pIC50 of COc1cccc(C(=O)N[C@@H]2[C@H](O)[C@@H](CO)O[C@H]2n2cnc3c(N)ncnc32)c1 for me?
Solution: 2.66

[1] Nc1ncnc2c1nc(Br)n2[C@@H]1O[C@H](CO)[C@@H](O)[C@H]1NC(=O)c1ccccc1
[2] CCOc1cccc(C(=O)N[C@@H]2[C@H](O)[C@@H](CO)O[C@H]2n2cnc3c(N)ncnc32)c1
Problem: Given the two records 1 and 2 , choose the one whose pIC50 value is lower. Answer by stating the label of the chosen item.
Solution: 1
(1: 2.20, 2: 3.30)

[A] Nc1ncnc2c1nc(-c1cccs1)n2[C@@H]1O[C@H](CO)[C@@H](O)[C@H]1NC(=O)c1ccccc1
[B] Nc1ncnc2c1nc(-c1cccs1)n2[C@@H]1O[C@H](CO)[C@@H](O)[C@H]1O
Problem: // max by pIC50 over [ A , B ] Answer by stating the label of the chosen item.
Solution: B
(B: 3.22, A: 2.92)

[1] Nc1ncnc2c1ncn2[C@@H]1O[C@H](CO)[C@@H](O)[C@H]1NC(=O)c1ccc2[nH]cnc2c1
[2] Cc1nc(N)c2[nH]cnc2n1
[3] NCCn1c(-c2cccs2)nc2c(N)ncnc21
[4] Nc1ncnc2c1ncn2[C@@H]1O[C@H](CO)[C@@H](O)[C@H]1O
[5] Nc1ncnc2c1ncn2C1O[C@H](CNC(=O)C(c2ccccc2)c2ccccc2)[C@@H](O)[C@H]1O (stereo partly drawn)
Problem: Arrange these 5 compounds in increasing order of pIC50. Give the labels in the order specified.
Solution: 4, 2, 1, 3, 5
(4: 1.00, 2: 2.10, 1: 2.52, 3: 2.74, 5: 3.60)

[P] COc1nc2c(N)ncnc2n1[C@@H]1O[C@H](CO)[C@@H](O)[C@H]1NC(=O)c1ccccc1
[Q] Nc1ncnc2c1ncn2[C@@H]1CCC[C@H]1NC(=O)c1cccc(Br)c1
[R] Nc1ncnc2c1ncn2[C@@H]1O[C@H](CO)[C@@H](O)[C@H]1NC(=O)c1ccc(-c2ccccc2)cc1
[S] Nc1ncnc2c1nc(-c1cccs1)n2CCNCc1ccccc1
Problem: Rank the 4 compounds: largest pIC50 first, smallest last. Give the labels in the order specified.
Solution: R, S, Q, P

[A] Nc1ncnc2c1nc(Sc1ncccn1)n2C1O[C@H](CO)[C@@H](O)[C@H]1O (stereo partly drawn)
[B] Nc1ncnc2c1ncn2[C@@H]1O[C@H](CO)[C@@H](O)[C@H]1NC(=O)c1cccc(Cl)c1
[C] Nc1ncnc2c1ncn2[C@@H]1O[C@H](CO)[C@@H](O)[C@H]1NC(=O)c1ccc2cccnc2c1
Problem: Rank the 3 compounds: largest pIC50 first, smallest last. Give the labels in the order specified.
Solution: B, C, A

----------
Catalogue of molecules with associated IC50
tested-system: Glyceraldehyde-3-phosphate dehydrogenase (Homo sapiens, UniProt P04406)
assay-remarks: Inhibition of Glyceraldehyde-3-phosphate dehydrogenase in human erythrocytes.

Problem: Can you look up the measured IC50 of Nc1ncnc2c1ncn2[C@@H]1O[C@H](CO)[C@@H](O)[C@H]1NC(=O)c1ccc2cccnc2c1 for me?
Solution: > 2 mM

---
Problem: Can you look up the measured IC50 of Nc1ncnc2c1ncn2[C@@H]1O[C@H](CO)[C@@H](O)[C@H]1NC(=O)c1ccc2[nH]cnc2c1 for me?
Solution: > 10 mM

Problem: Same question, Nc1ncnc2c1ncn2C1O[C@H](CNC(=O)C(c2ccccc2)c2ccccc2)[C@@H](O)[C@H]1O (stereo partly drawn) this time
Solution: 0.25 mM

Problem: Same question, COc1cccc(C(=O)N[C@@H]2[C@H](O)[C@@H](CO)O[C@H]2n2cnc3c(N)nc(C)nc32)c1 this time
Solution: > 10 mM

Problem: Same question, CC(C)COC(=O)N[C@@H]1[C@H](O)[C@@H](CO)O[C@H]1n1cnc2c(N)ncnc21 this time
Solution: > 10 mM

----------
assay-remarks: TInhibition of glyceraldehyde-3-phosphate dehydrogenase in Leishmania mexicana
observed-property: IC50 (µM)

Below, 4 molecules whose answers are already recorded.
Problem: Can you look up the measured IC50 of Nc1ncnc2c1nc(Br)n2[C@@H]1O[C@H](CO)[C@@H](O)[C@H]1NC(=O)c1ccccc1 for me?
Solution: 3000

Problem: Same question, Nc1ncnc2c1nc(-c1cccs1)n2CCNCc1ccccc1 this time
Solution: 400

Problem: Same question, COc1cccc(C(=O)N[C@@H]2[C@H](O)[C@@H](CO)O[C@H]2n2cnc3c(N)ncnc32)c1 this time
Solution: 300

Problem: Same question, Nc1ncnc2c1nc(Sc1ncccn1)n2C1O[C@H](CO)[C@@H](O)[C@H]1O (some centres undefined) this time
Solution: 4000

[A] Nc1ncnc2c1nc(-c1cccs1)n2[C@@H]1O[C@H](CO)[C@@H](O)[C@H]1NC(=O)c1ccccc1
[B] Nc1ncnc2c1ncn2[C@@H]1O[C@H](CO)[C@@H](O)[C@H]1NC(=O)c1ccc2[nH]cnc2c1
[C] Nc1ncnc2c1ncn2[C@@H]1O[C@H](CO)[C@@H](O)[C@H]1NC(=O)c1ccc(-c2ccccc2)cc1
[D] CCc1ccc(-c2ccc(C(=O)NC[C@H]3OC(n4cnc5c(N)ncnc54)[C@H](O)[C@@H]3O)cc2)cc1 (some centres undefined)
Problem: Rank the 4 molecules: largest IC50 first, smallest last. Give the labels in the order specified.
Solution: B, D, A, C
(B: 3000 µM, D: 750 µM, A: 500 µM, C: 200 µM)

----------
Catalogue of molecules with associated pIC50
assay-remarks: TInhibition of glyceraldehyde-3-phosphate dehydrogenase in Leishmania mexicana
pIC50: −log10 of the molar value.

Below, 6 molecules whose answers are already recorded.
Problem: Can you look up the measured pIC50 of COc1cccc(C(=O)N[C@@H]2CCC[C@H]2n2cnc3c(N)ncnc32)c1 for me?
Solution: < 2.30

Problem: Same question, Nc1ncnc2c1ncn2CCNC(=O)c1cccc(F)c1 this time
Solution: < 2.40

Problem: Same question, Nc1ncnc2c1ncn2[C@@H]1O[C@H](CO)[C@@H](O)[C@H]1NCc1ccccc1 this time
Solution: < 2.00

Problem: Same question, Nc1ncnc2c1ncn2CCNC(=O)c1cccc(Cl)c1 this time
Solution: < 2.40

Problem: Same question, COc1cccc(C(=O)N[C@@H]2[C@H](O)[C@@H](CO)O[C@H]2n2cnc3c(N)nc(C)nc32)c1 this time
Solution: < 2.00

Problem: Same question, Nc1ncnc2c1nc(SC1CCCCC1)n2C1O[C@H](CO)[C@@H](O)[C@H]1O (some centres not stated) this time
Solution: < 2.70

Could you now consider this next molecule?
Problem: Can you look up the measured pIC50 of COc1nc2c(N)ncnc2n1[C@@H]1O[C@H](CO)[C@@H](O)[C@H]1NC(=O)c1ccccc1 for me?
Solution: 2.05
